Data credit: patent US20200087416A1

# Target under test: T1, murine PCSK-9 (murine, UniProt Q80W65 35-694)
# T1 construct: also called mouse PCSK9
# Experimental protocol: MSD-SET, Fab with biotin-PCSK9 in solution, IgG on plate, pH 7.4
Recorded endpoint: pKd
The quantity pKd is defined as the negative base-10 logarithm of the molar concentration.

Binder	pKd
ADI-09112 Fab (Fab, V domains shown) VH: QLQLQESGPGLVKPSETLSLTCTVSGGSISSSSYYWGWIRQPPGKGLEWIGSIYYSGSTYYNPFLKSRVTISVDTSKNQFSLKLSSVTAADTAVYYCARENSGVVPAAGPNWFGPWGQGTLVTVSS VL: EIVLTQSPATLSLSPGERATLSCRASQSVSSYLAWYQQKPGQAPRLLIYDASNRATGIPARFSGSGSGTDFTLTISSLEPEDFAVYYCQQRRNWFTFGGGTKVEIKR	8.92
ADI-10089 Fab (Fab, V domains shown) VH: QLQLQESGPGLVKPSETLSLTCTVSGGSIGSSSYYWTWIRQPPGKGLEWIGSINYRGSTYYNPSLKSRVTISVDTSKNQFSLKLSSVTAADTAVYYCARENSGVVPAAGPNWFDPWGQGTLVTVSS VL: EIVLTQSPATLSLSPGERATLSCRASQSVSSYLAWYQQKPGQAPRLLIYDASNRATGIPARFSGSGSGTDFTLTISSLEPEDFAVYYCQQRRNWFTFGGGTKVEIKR	10.15

Could you now consider this next binder?
pKd recorded for this binder, ADI-09113 Fab (Fab, V domains shown) VH: QLQLQESGPGLVKPSETLSLTCTVSGGSVSSSSYYWGWIRQPPGKGLEWIGSAYYSGSTYYNPSLKSRVTISVDTSKNQFSLKLSSVTAADTAVYYCARENSGVVPAAGPNWFDPWGQGTLVTVSS VL: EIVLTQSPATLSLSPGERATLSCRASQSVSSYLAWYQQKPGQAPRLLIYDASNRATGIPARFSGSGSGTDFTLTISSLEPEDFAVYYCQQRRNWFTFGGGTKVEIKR , is 9.12
